test: Compound was evaluated for inhibition of PNP-catalyzed inosine […] in Cellulomonas sp
reported.metric: IC50 (nM)

- O=c1[nH]cnc2c1ncn2CC[C@@H]1C[C@H]1C(F)(F)P(=O)(O)O: 70
- Nc1nc2c(ncn2CCCCC(F)(F)P(=O)(O)O)c(=O)[nH]1: 540
- Nc1nc2c(ncn2CC[C@@H]2C[C@H]2C(F)(F)P(=O)(O)O)c(=O)[nH]1: 390
- O=c1[nH]cnc2c1ncn2C[C@@H]1COC[C@@H]1CC(F)(F)P(=O)(O)O: 35
- O=c1[nH]cnc2c1ncn2C[C@H]1COC[C@@H]1CC(F)(F)P(=O)(O)O: 37
